Biological target: MRGPRX4 (Homo sapiens, UniProt Q96LA9)
Sequence (Q96LA9 whole entry): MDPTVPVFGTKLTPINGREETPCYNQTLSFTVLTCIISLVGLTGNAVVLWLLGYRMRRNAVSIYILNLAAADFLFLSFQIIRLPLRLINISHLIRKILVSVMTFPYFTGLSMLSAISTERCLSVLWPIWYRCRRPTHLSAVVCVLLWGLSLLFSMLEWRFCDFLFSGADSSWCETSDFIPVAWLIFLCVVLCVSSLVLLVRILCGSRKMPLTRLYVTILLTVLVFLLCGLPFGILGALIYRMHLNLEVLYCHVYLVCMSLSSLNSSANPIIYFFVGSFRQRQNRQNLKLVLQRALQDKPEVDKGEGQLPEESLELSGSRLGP
Assay: MRGPRX4 activation, Fluo-8 Ca2+ FLIPR assay in HEK293T cells stably expressing MRGPRX4
Type: cell-based
Settings: E3-9, Conc. (Log[M]) −8.3
Listing of recorded MRGPRX4 activation, Average by entry.
Provide a numeric answer; units are not to be included.

As a guide, the following entries are already answered.
INSERT INTO measurements (chemical_smiles, assayed_system, quantitative_result) VALUES
  ('CC[C@H]1[C@@H](O)[C@H]2[C@@H]3CC[C@](C)([C@H](C)CCNC(=O)NS(=O)(=O)C[C@]45CCC(CC4=O)C5(C)C)[C@H]3CC[C@@H]2[C@@]2(C)CC[C@H](F)C[C@@H]12', 'MRGPRX4 (Homo sapiens, UniProt Q96LA9)', 0.021),
  ('CC[C@H]1[C@@H](O)[C@@H]2[C@H](CC[C@]3(C)[C@@H]([C@H](C)CCNC(=O)NS(=O)(=O)c4ccc(C(C)(C)CF)cc4)CC[C@@H]23)[C@@]2(C)CCC(F)(F)C[C@@H]12', 'MRGPRX4 (Homo sapiens, UniProt Q96LA9)', 0.010);

Alright, here's another compound for you.
Look at this compound and give its reported MRGPRX4 activation, Average. CC[C@H]1[C@@H](O)[C@@H]2[C@H](CC[C@]3(C)[C@@H]([C@H](C)CCNC(=O)C(=O)NS(=O)(=O)c4cccs4)CC[C@@H]23)[C@@]2(C)CCCC[C@@H]12
0.006
